Origin of measurements: patent EP4578855A1

Assay: Pharmacokinetic evaluation after intravenous injection or intragastric administration, plasma LC-MS/MS
Type: in vivo, SD rats
Settings: male, Sprague-Dawley, rat, plasma, male SD rats; route and dose not given; read-out: Half-life period T1/2 (converted)
MEASURE NAME: half-life (h)
Answers are plain numbers, in h.

compound="O=C(O)CNC(=O)c1c(O)cc(CCc2ccccc2)n2ncnc12 [Enarodustat, reference compound]" measured_number=1.12

Proceeding to the next compound to report its half-life.
Quote half-life reported for O=C(O)CNC(=O)c1c(O)cc(C2CCc3ccccc3C2)n2ncnc12 (single isomer, unassigned) please.
2.02

====

Target: PHD2 enzyme (Homo sapiens)
Construct: purchased Active motif
Sequence (Q9GZT9 whole entry, species assumed): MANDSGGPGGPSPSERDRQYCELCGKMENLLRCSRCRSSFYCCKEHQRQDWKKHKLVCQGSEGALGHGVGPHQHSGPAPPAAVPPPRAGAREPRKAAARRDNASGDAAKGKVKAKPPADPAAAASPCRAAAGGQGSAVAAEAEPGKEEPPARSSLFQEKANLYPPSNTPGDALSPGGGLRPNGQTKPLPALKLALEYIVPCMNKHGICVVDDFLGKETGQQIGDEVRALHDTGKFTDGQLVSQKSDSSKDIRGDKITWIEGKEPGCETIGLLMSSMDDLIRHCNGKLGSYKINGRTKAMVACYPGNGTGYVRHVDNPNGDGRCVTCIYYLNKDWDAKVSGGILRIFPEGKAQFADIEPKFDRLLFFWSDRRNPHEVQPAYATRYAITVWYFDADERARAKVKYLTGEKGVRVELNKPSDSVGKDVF
Assay: Detection of PHD2 enzyme activity inhibition (FITC-HIF1α tracer, mP read-out)
Format: biochemical
MEASURE NAME: IC50 (µM)
One number for each entry, in µM.

Quote IC50 reported for O=C(O)CNC(=O)c1c(O)cc(CCc2ccccc2)n2ncnc12 [Enarodustat, reference compound] please.
0.0219
